# pKi per entry for h-5-HT6 receptor (Homo sapiens, UniProt P50406)
pKi: −log10 of the molar value. Counter-ions that a name gives are not always drawn.

# example entries with known answers
> print(dat)
                                   compound  observed
1  O=S(=O)(c1cccc(F)c1)c1cnc2c(N3CC4CCNC4C3)cccc2c1 (stereo not shown) [Example 29, hydrochloride]    > 8.00
2  O=S(=O)(c1cccc(OC(F)(F)F)c1)c1cnc2c(N3CC4CCNCC4C3)cccc2c1 (stereo not shown)    > 8.00
3  CN1CCC2CN(c3cccc4cc(S(=O)(=O)c5ccccc5)cnc34)CC2C1 (stereo not shown)    > 7.30

Query :: Given the entry O=S(=O)(c1ccccc1)c1cnc2c(N3CC4CCNC4C3)cccc2c1 (stereo not shown) [Example 1, hydrochloride] , report its measured pKi.
Result :: > 8.00

Query :: Record request: pKi value, item O=S(=O)(c1cccc(F)c1)c1cnc2c(N3CC4CCCNC4C3)cccc2c1 (stereo not shown)
Result :: > 8.00

Query :: // lookup pKi for O=S(=O)(c1cccc(F)c1)c1cnc2c(N3C[C@@H]4CN[C@@H]4C3)cccc2c1 [Example 32, hydrochloride]
Result :: > 8.00
